Source of measurements: paper PMC9958325

measured on: SARS-CoV-2 M^pro/3CL^pro (Severe acute respiratory syndrome coronavirus 2, UniProt P0DTD1)
Assay type: biochemical
condition parameters: FRET; mean ± 1 S.D.; read-out: SARS-CoV2 M^pro enzyme assay IC50
metric name: IC50 (nM)
The reply should contain only the number, in nM.

Task: IC50 lookup needed for COc1ccc(F)c2[nH]c(C(=O)N[C@@H](CC(C)C)C(=O)N[C@@H](C[C@@H]3CCNC3=O)C(=O)c3nc4ccccc4s3)cc12 [TKB125] , thanks.
Result: 34

Task: IC50 lookup needed for COc1ccc(F)c2[nH]c(C(=O)N[C@@H](CC(C)C)C(=O)N[C@@H](C[C@@H]3CCNC3=O)C(=O)c3nc4c(F)cccc4s3)cc12 [TKB198] , thanks.
Result: 23

Task: IC50 lookup needed for CC(C)(C)[C@H](NC(=O)C(F)(F)F)C(=O)N1C[C@H]2[C@@H]([C@H]1C(=S)N[C@@H](C[C@@H]1CCNC1=O)C(=O)c1nc3c(F)cccc3s1)C2(C)C [TKB248] , thanks.
Result: 74
